- System: T47D
- Test Name: NCI tumour cell line growth inhibition, 48 h
Calls of active or inactive are those of the source. No stated cut-off is given here; in the data, active = GI50 up to about 1.1 µM and inactive = higher.
Outcome codes: active, inactive

compound="COP(=O)(CC(=O)C1OC(OCc2ccccc2)C(OCc2ccccc2)C(OCc2ccccc2)C1OCc1ccccc1)OC (centres undefined)" target_or_system=T47D assigned_category=inactive
compound="COc1ccc(C2c3cc4c(cc3OC(N3CCOCC3)C2C)OCO4)cc1OC (centres undefined)" target_or_system=T47D assigned_category=inactive
compound="O=P(c1ccccc1)(c1ccccc1)C(NCc1ccccc1)c1ccc(F)cc1 (centres undefined)" target_or_system=T47D assigned_category=inactive
compound=ON(CCc1ccccn1)Cc1ccccc1 target_or_system=T47D assigned_category=inactive
compound=CNC(=O)[C@H](Cc1ccccc1)NC(=O)N(CCC#N)CCN(C(=O)N[C@@H](Cc1ccccc1)C(=O)OC)c1ccccc1 target_or_system=T47D assigned_category=inactive
compound=O=C(O)[C@@H]1[C@H](C(=O)O)[C@H](C(=O)O)C[C@@H]1C(=O)O target_or_system=T47D assigned_category=inactive
compound="CC(C)C1=CC2=C(C(=O)C1=O)C13CCCC(C)(C)C1CC2OC3=O (centres undefined)" target_or_system=T47D assigned_category=inactive
compound=Oc1ccc(-c2nc3ccc4ccccc4c3c3c2CCCC3)c(O)c1 target_or_system=T47D assigned_category=inactive
compound=O=c1c2ccccc2n2n1Cc1ccccc1C2 target_or_system=T47D assigned_category=inactive
compound=COc1nc(N=P(c2ccccc2)(c2ccccc2)c2ccccc2)cc(=O)[nH]1 target_or_system=T47D assigned_category=inactive
compound=O=C1c2ccccc2C(=O)c2sc(Nc3ccc([N+](=O)[O-])cc3)nc21 target_or_system=T47D assigned_category=inactive
compound=COC(=O)[C@]12CC[C@H]3CN(C(=O)OCc4ccccc4)[C@H]([C@H]31)[C@H](c1ccccc1)N2 target_or_system=T47D assigned_category=inactive
compound="CC(C)[Si]1(C(C)C)OCC2OC(n3ccc(=O)[nH]c3=O)C(O)(CO)C2O[Si](C(C)C)(C(C)C)O1 (centres undefined)" target_or_system=T47D assigned_category=inactive
compound="COc1ccc(C2C=C(c3ccccc3)Nc3nnnn32)cc1 (centres undefined)" target_or_system=T47D assigned_category=inactive
compound="CC(C)=CCC/C(C)=C/CC/C(C)=C/CC(CO)N(C)CC/C=C(\\C)CCC=C(C)C (centres undefined)" target_or_system=T47D assigned_category=inactive
compound=Cc1c(S(=O)(=O)/N=C(\NN)Nc2ccc(Cl)cc2)sc2ccc(Cl)cc12 target_or_system=T47D assigned_category=inactive
compound=O=C(c1ccccc1)c1c(-c2ccccc2)[nH]n(-c2ccc([N+](=O)[O-])cc2)c(=O)c1=O target_or_system=T47D assigned_category=inactive
compound="CC1=CCC2CC1C(C(=O)c1c[nH]c3ccccc13)=NC2(C)C (centres undefined)" target_or_system=T47D assigned_category=inactive
compound="CC(C)[Si]1(C(C)C)OCC2OC(n3c(C(=O)c4ccccc4)cc(=O)[nH]c3=O)CC2O[Si](C(C)C)(C(C)C)O1 (centres undefined)" target_or_system=T47D assigned_category=inactive
compound=Cc1nc2ccccc2cc1C[N+]12CN3CN(CN(C3)C1)C2 target_or_system=T47D assigned_category=inactive
compound=CC/C=C/C[C@H](O[Si](C)(C)C(C)(C)C)[C@H]1C[C@H]2O[C@H]([C@@H](O)C#C[Si](C)(C)C)C[C@H]2O1 target_or_system=T47D assigned_category=inactive
compound=O=C(c1cc(Cl)cc(Cl)c1)N1CCN(C(=O)c2cc(Cl)cc(Cl)c2)C1=S target_or_system=T47D assigned_category=inactive
compound="CN(C)/C=N/CC(O)c1ccccc1 (centres undefined)" target_or_system=T47D assigned_category=inactive
compound="CC1=C(c2ccc(C)cc2)NC(=S)C(C)C(c2ccc(C)cc2)=N1 (centres undefined)" target_or_system=T47D assigned_category=inactive
compound=Cc1ccc2c(c1C)C(=O)/C(=C/c1ccccc1C(=O)O)C2 target_or_system=T47D assigned_category=inactive
compound=C1CSCCSCCCSCCSCCCSCCSCCCSCCSC1 target_or_system=T47D assigned_category=inactive
compound=COc1cc(C=O)cc(/C=N/c2ccc(S(N)(=O)=O)cc2)c1O target_or_system=T47D assigned_category=inactive
compound="C=C(C)COc1ccc2c(c1)CCC1C2CCC2(C)C(=O)/C(=N/O)CC12 (centres undefined)" target_or_system=T47D assigned_category=inactive
compound="COC(=O)CCc1cc(O)c2c(c1)C(C(=O)OC)C(c1ccc(O)c(O)c1)O2 (centres undefined)" target_or_system=T47D assigned_category=inactive
compound=CCOC(=N)n1c(=O)n(C2=NCCN2)c2ccccc21 target_or_system=T47D assigned_category=inactive
compound=N#Cc1c(N)c(-c2ccc(Cl)cc2)c(F)c2ccccc12 target_or_system=T47D assigned_category=inactive
compound=CC1(C)CC(C#Cc2ccccc2)CC(C)(C)N1O target_or_system=T47D assigned_category=inactive
compound=C/C(CC(O)(C(F)(F)F)C(F)(F)F)=N/Nc1ccc([N+](=O)[O-])cc1[N+](=O)[O-] target_or_system=T47D assigned_category=active
compound=O=c1c(Cc2ccccc2Cc2c(O)oc3ccccc3c2=O)c(O)oc2ccccc12 target_or_system=T47D assigned_category=inactive
compound="COC1/C=C(C)/C=C/C(C)/C=C/C(=O)OC(/C(C)=C/C=C(\\C)CNC(=O)[C@H](CO)NC=O)C(C)/C=C/C=C/C(OC)CC/C=C(C)/C=C/C1 (some centres undefined)" target_or_system=T47D assigned_category=active
compound=C[C@]1(CO)[C@H]2CC[C@@]34C=C[C@@](CO)(CC[C@H]3[C@]2(C)CC[C@H]1O)C4 target_or_system=T47D assigned_category=inactive
compound=CSCCC(NC(=O)OCc1ccccc1)NC(=O)OCc1ccccc1 target_or_system=T47D assigned_category=inactive
compound=Cc1cc2[n-][n+]3ncc(-c4ccccc4)n3c2cc1[N+](=O)[O-] target_or_system=T47D assigned_category=inactive
compound=Nc1ccc(-c2nn3c(COc4ccc(Cl)cc4)nnc3s2)cc1 target_or_system=T47D assigned_category=inactive

###

- System: OVCAR-3
- Test Name: NCI tumour cell line growth inhibition, 48 h
Activity calls are given as the source filed them. No stated cut-off is given here; in the data, active = GI50 up to about 1.1 µM and inactive = higher.
Outcome codes: active, inactive

compound="O=C(Nc1ccccc1SC(/C=C/NNC1=NN=C(c2ccccc2)C(c2ccccc2)N1)c1ccccc1)c1ccc(Cl)cc1Cl (stereo not given)" assigned_category=inactive
compound=CCCC(=O)Oc1c2ccsc2c(OC(=O)CCC)c2ccsc12 assigned_category=active
compound=c1csc(-c2cc(-c3cccs3)c(-c3cccs3)s2)c1 assigned_category=inactive
compound=COc1cc(OC)c(-c2cc(=O)c3c(OC)c(OC)c(OC)c(OC)c3o2)cc1OC assigned_category=inactive
compound=COc1ccc2c(c1)O[C@H]1c3ccc(O)cc3OC[C@@H]21 assigned_category=inactive

###

- Test system: HCT-15
Endpoint Name: GI50

molecule="N#CC12C(=O)N3C(=NC(c4ccccc4)NC3c3ccccc3)C1(C#N)C(c1ccccc1)NC1=C2CCC1 (centres undefined)" experimental_result="> 100 µM"
molecule="COc1cccc(C2c3cc4c(cc3OC(NNS(=O)(=O)c3ccc(C)cc3)C2C)OCO4)c1OC (centres undefined)" experimental_result="2.65 µM"
molecule=CCCn1cnc2c(SCC(=O)O)nc(N)nc21 experimental_result="> 100 µM"
molecule="CC(=O)C1CC(C)=CCC12C(=O)Nc1ccccc12 (centres undefined)" experimental_result="> 100 µM"

###

- Test system: MOLT-4
- Test Name: NCI tumour cell line growth inhibition, 48 h
Activity calls are given as the source filed them. No stated cut-off is given here; in the data, active = GI50 up to about 1.1 µM and inactive = higher.
Outcome codes: active, inactive

molecule="COC1/C=C(C)/C=C/C(C)/C=C/C(=O)OC(/C(C)=C/C=C(\\C)CNC(=O)[C@H](CO)NC=O)C(C)/C=C/C=C/C(OC)CC/C=C(C)/C=C/C1 (some centres not stated)" target_or_system=MOLT-4 assigned_category=active
molecule="CC(=O)C1C(=O)N(C(C)C)C[C@@H]2CCC(=O)C[C@H]12 (some centres not stated)" target_or_system=MOLT-4 assigned_category=inactive
molecule="COc1ccc(CCN2C(=O)C(=O)C(C(=O)c3ccccc3)C2c2ccccc2)cc1OC (configuration not stated)" target_or_system=MOLT-4 assigned_category=inactive
molecule="CCOC(=O)C(Cl)(NC(=O)c1c(F)c(F)c(F)c(F)c1F)C(F)(F)F (configuration not stated)" target_or_system=MOLT-4 assigned_category=inactive
molecule=O=c1c(Cc2ccccc2Cc2c(O)oc3ccccc3c2=O)c(O)oc2ccccc12 target_or_system=MOLT-4 assigned_category=inactive
molecule=CC/C=C/C[C@H](O[Si](C)(C)C(C)(C)C)[C@H]1C[C@H]2O[C@H]([C@@H](O)C#C[Si](C)(C)C)C[C@H]2O1 target_or_system=MOLT-4 assigned_category=inactive
molecule=COc1nc(N)c(N=O)c(OCc2ccccc2)n1 target_or_system=MOLT-4 assigned_category=inactive
molecule="CC1=C(c2ccc(C)cc2)NC(=S)C(C)C(c2ccc(C)cc2)=N1 (configuration not stated)" target_or_system=MOLT-4 assigned_category=inactive
molecule="CC(=O)OCC1OC(Nc2ccc3nc(C)n(-c4ccccc4)c(=O)c3c2)C(OC(C)=O)C(OC(C)=O)C1OC(C)=O (configuration not stated)" target_or_system=MOLT-4 assigned_category=inactive
molecule=Cn1ncc2c(Nc3cccc(Cl)c3)nc(Nc3cccc(Cl)c3)nc21 target_or_system=MOLT-4 assigned_category=inactive
molecule=c1csc(-c2cc(-c3cccs3)c(-c3cccs3)s2)c1 target_or_system=MOLT-4 assigned_category=inactive
molecule=Oc1ccc2ccccc2c1OCc1nnc(CCCCCCCCc2nnc(COc3c(O)ccc4ccccc34)o2)o1 target_or_system=MOLT-4 assigned_category=inactive
molecule=O=C(/C=C/c1ccccc1)Oc1cccc(O)c1 target_or_system=MOLT-4 assigned_category=inactive
molecule=CCOC(=N)n1c(=O)n(C2=NCCN2)c2ccccc21 target_or_system=MOLT-4 assigned_category=inactive
molecule="CC(ON1[C@](C)(c2ccccc2)CC[C@@]1(C)c1ccccc1)c1ccccc1 (some centres not stated)" target_or_system=MOLT-4 assigned_category=inactive
molecule=CCCN(CCCN)/[N+]([O-])=N\O target_or_system=MOLT-4 assigned_category=inactive
molecule="CC(CO)(CO)N1C(=O)C2C3C=CC(C3)C2C1=O (configuration not stated)" target_or_system=MOLT-4 assigned_category=inactive
molecule=O=c1[nH]nc2ccccc2c1Cc1ccccc1 target_or_system=MOLT-4 assigned_category=inactive
molecule="O=C1NC(=O)C(CC2CCCCCCCCCCC2=O)C(=O)N1 (configuration not stated)" target_or_system=MOLT-4 assigned_category=inactive
molecule=Cc1ccccc1-c1c(N)nc(NC#N)nc1C(=O)Nc1ccccc1 target_or_system=MOLT-4 assigned_category=inactive
molecule=CC(=O)C(=CNc1c(C)n(C)n(-c2ccccc2)c1=O)C(C)=O target_or_system=MOLT-4 assigned_category=inactive
molecule="CCC1CCC2c3c([nH]c4ccccc34)C3C(=O)N(c4ccc(OC)cc4)C(=O)C3C2C1 (configuration not stated)" target_or_system=MOLT-4 assigned_category=inactive
molecule=Cc1nc2ccc(C(F)(F)F)cc2nc1Nc1ccc(Cl)c(Cl)c1 target_or_system=MOLT-4 assigned_category=inactive
molecule="Cc1c(/N=N/c2ccc(Cl)cc2)c(C)n(C2OC(CO)C(O)C(O)C2O)c(=S)c1C#N (configuration not stated)" target_or_system=MOLT-4 assigned_category=inactive
molecule=COc1ccc(OC)c(NS(=O)(=O)c2ccc3nc(C)n(NS(=O)(=O)c4cc(OC)ccc4OC)c(=O)c3c2)c1 target_or_system=MOLT-4 assigned_category=inactive
molecule=COc1cc([C@@H]2c3cc4c(cc3[C@@H](Nc3ccc(Cl)cc3C(=O)c3ccccc3Cl)[C@H]3COC(=O)[C@H]23)OCO4)cc(OC)c1OC target_or_system=MOLT-4 assigned_category=active
molecule=C/C(=N\Nc1nc2ccccc2s1)c1ncccn1 target_or_system=MOLT-4 assigned_category=active
molecule="Nc1ccn(C2(CO)C=C(CO)C(O)C2O)c(=O)n1 (configuration not stated)" target_or_system=MOLT-4 assigned_category=inactive
molecule="NC(=O)C(=O)N/N=C(\\CC1(O)C(=O)Nc2ccccc21)c1ccc2ccccc2c1 (configuration not stated)" target_or_system=MOLT-4 assigned_category=inactive
molecule="Nc1cc(O)nc(SC2=NC(N)CC(O)C2)n1 (configuration not stated)" target_or_system=MOLT-4 assigned_category=inactive
molecule="CC(C)C1CCC/C=C/C=C/C=C/C=C/C(OC2OC(C)C(O)C(N)C2O)CC2OC(O)(CC(O)CC(O)C(O)CCC(=O)O1)CC(O)C2C(=O)O (configuration not stated)" target_or_system=MOLT-4 assigned_category=inactive
molecule=CCCCCCOP(=O)(OCCCCCC)C(NC(=O)OCC)(C(F)(F)F)C(F)(F)F target_or_system=MOLT-4 assigned_category=inactive
molecule=C=C(Br)CN(CC(=C)Br)C(C)=O target_or_system=MOLT-4 assigned_category=inactive
molecule=CCCCCC[N+](C)(C)Cc1ccc(C[N+](C)(C)CCCCCC)cc1 target_or_system=MOLT-4 assigned_category=inactive
molecule="CC1C2CC(C(C3C(=O)C4CC3C(C)(C)C4C)C2=O)C1(C)C (configuration not stated)" target_or_system=MOLT-4 assigned_category=inactive
molecule="CCCC(=O)OC1C(C2COC(C)(C)O2)OC2OC(C)(C)OC21 (configuration not stated)" target_or_system=MOLT-4 assigned_category=inactive
molecule=CC1(C)N=C(N)N=C(N)N1c1ccc(CCCCc2ccc(S(=O)(=O)F)cc2Cl)c(Cl)c1 target_or_system=MOLT-4 assigned_category=active
